Target: T1, human CC chemokine receptor 4 (CCR4) on CCR4/EL-4 cells (human, UniProt P51679 1-360)
T1 construct: also called hCCR4; human CCR4-high-expressing cell
T1 sequence: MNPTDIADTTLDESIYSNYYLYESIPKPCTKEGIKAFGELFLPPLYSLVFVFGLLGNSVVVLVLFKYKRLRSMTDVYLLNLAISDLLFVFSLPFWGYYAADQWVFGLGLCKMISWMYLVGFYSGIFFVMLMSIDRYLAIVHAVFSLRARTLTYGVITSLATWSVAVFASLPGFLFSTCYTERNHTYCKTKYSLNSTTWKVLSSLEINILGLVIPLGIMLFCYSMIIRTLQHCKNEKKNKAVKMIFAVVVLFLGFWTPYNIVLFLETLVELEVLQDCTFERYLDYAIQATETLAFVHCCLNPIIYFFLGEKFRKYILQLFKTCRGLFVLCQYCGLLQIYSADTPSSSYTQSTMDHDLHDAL
Assay: flow cytometry on CCR4/EL-4 cells, antibody at 10 µg/ml
measurement.kind: binding result

binder="anti-CCR4 CDR-grafted antibody Ga13LV1 (antibody, human IgG1, V domains shown, Tested as COS-7 supernatant and as purified antibody from YB2/0; also called pKM2160Ga13LV 1) VH: EVQLVESGGDLVQPGRSLRLSCAASGFIFSNYGMSWVRQAPDKRLEWVATISSASTYSYYPDSVKGRFTISRDNAKNSLYLQMNSLRVEDTALYYCGRHSDGNFAFGYWGQGTLVTVSS VL: DVVMTQSPLSLPVTPGEPASISCRSSRNIVHINGDTYLEWYLQKPGQSPQLLIYKVSNRFSGVPDRFSGSGSGTDFTLKISRVEAEDVGVYYCFQGSLLPWTFGQGTKVEIK" reported_result=binds
binder="anti-CCR4 CDR-grafted antibody Ga10LV3 (antibody, human IgG1, V domains shown, Tested as COS-7 supernatant and as purified antibody from YB2/0; also called pKM2160Ga10LV3) VH: EVQLVESGGDLVQPGRSLRLSCAASGFIFSNYGMSWVRQAPGKGLEWVATISSASTYSYYPDSVKGRFTISRDNAKNSLYLQMNSLRVEDTALYYCARHSDGNFAFGYWGQGTLVTVSS VL: DVLMTQSPLSLPVTPGEPASISCRSSRNIVHINGDTYLEWYLQKPGQSPQLLIYKVSNRFSGVPDRFSGSGSGTDFTLKISRVEAEDVGVYYCFQGSLLPWTFGQGTKVEIK" reported_result=binds
binder="anti-CCR4 CDR-grafted antibody Ga12LV3 (antibody, human IgG1, V domains shown, Tested as COS-7 supernatant and as purified antibody from YB2/0; also called pKANTEX2160Ga12LV3; antibody of producing cell KM8759 (FERM BP-8129)) VH: EVQLVESGGDLVQPGRSLRLSCAASGFIFSNYGMSWVRQAPDKRLEWVATISSASTYSYYPDSVKGRFTISRDNAKNSLYLQMNSLRVEDTALYYCARHSDGNFAFGYWGQGTLVTVSS VL: DVLMTQSPLSLPVTPGEPASISCRSSRNIVHINGDTYLEWYLQKPGQSPQLLIYKVSNRFSGVPDRFSGSGSGTDFTLKISRVEAEDVGVYYCFQGSLLPWTFGQGTKVEIK" reported_result=binds
